target: TLR8 (Homo sapiens (Human), UniProt Q9NR97); test: TLR8 human peripheral blood mononuclear cell (PBMC) cell-based assay (Compound A as agonist; TNFα and IL12p40 readout); conditions: human PBMCs, TLR8 agonist Compound A at 800 nM, 6 hours, antagonist potency; read-out: TLR-8 EC50
Sequence (Q9NR97 27-1041): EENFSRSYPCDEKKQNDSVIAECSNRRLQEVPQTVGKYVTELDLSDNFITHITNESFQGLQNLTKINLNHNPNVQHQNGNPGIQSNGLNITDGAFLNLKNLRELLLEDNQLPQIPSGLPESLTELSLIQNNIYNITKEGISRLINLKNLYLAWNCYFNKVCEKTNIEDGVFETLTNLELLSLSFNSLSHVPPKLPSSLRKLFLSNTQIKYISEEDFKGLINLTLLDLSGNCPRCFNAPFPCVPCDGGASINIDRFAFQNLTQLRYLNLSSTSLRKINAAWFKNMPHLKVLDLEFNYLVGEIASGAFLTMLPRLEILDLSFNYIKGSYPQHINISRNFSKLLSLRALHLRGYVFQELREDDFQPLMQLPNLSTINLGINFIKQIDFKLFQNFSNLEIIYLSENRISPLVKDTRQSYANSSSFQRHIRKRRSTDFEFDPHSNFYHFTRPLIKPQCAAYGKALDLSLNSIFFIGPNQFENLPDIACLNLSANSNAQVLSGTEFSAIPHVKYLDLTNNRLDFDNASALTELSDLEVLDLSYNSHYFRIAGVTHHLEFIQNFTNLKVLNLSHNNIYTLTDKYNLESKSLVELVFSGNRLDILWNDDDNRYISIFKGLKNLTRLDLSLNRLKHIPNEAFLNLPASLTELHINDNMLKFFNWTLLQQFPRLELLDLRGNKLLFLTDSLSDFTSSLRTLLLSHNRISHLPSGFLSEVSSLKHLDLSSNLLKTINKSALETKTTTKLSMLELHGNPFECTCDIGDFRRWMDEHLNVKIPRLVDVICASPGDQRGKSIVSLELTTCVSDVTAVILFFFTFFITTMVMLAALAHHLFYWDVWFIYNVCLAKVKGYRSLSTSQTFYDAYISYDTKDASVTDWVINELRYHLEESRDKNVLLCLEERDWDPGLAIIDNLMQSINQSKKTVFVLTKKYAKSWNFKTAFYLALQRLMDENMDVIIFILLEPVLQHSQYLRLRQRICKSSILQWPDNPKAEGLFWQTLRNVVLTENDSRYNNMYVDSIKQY
Label true when EC50 is strictly below 5 nM; otherwise label false.

compound	assigned_label
Cc1c(-c2[nH]c3sc([C@H]4C[C@H](c5nnc([C@@H]6COCCN6)o5)C4)c(C)c3c2C(C)C)cn2ncnc2c1C (single isomer, unassigned)	false
Cc1c(-c2[nH]c3sc(C4C[C@@H]5C[C@H]4CC5NC4COC4)c(C)c3c2C(C)C)cn2ncnc2c1C (stereo partly drawn)	true
Cc1c(-c2[nH]c3sc(C4CCC45CN(CC(N)=O)C5)c(C)c3c2C(C)C)cn2ncnc2c1C (single isomer, unassigned) [Example 315]	false
Cc1c(-c2[nH]c3sc(C4CCN(C(=O)C56COC(CN5)C6)CC4)c(C)c3c2C(C)C)cn2ncnc2c1C (stereo not drawn)	false
CNS(=O)(=O)CCN1C[C@@H]2C[C@H]1C[C@H]2c1sc2[nH]c(-c3cn4ncnc4c(C)c3C)c(C(C)C)c2c1C	true
Cc1cc(-c2[nH]c3sc(C(=O)N(C)C4CCNCC4)cc3c2C(C)C)cn2ncnc12	false
Cc1c(C2CCN(C(=O)C3(N4CCOCC4)CC3)CC2)sc2[nH]c(-c3cc(C)c4ncnn4c3)c(C(C)C)c12	false
Cc1c(C2CC3COCC(C2)N3)sc2[nH]c(-c3cc(C)c4ncnn4c3)c(C(C)C)c12 (stereo not drawn)	false
Cc1c(C2CCN(C(=O)C34COC(CN3)C4)CC2)sc2[nH]c(-c3cc(C)c4ncnn4c3)c(C(C)C)c12 (stereo not drawn)	false
Cc1c(C2CC3COCC(C2)N3CCO)sc2[nH]c(-c3cc(C)c4ncnn4c3)c(C(C)C)c12 (stereo not drawn)	false
Cc1c(-c2[nH]c3sc(C4CCN(C(=O)[C@H]5CCCN5)CC4)c(C)c3c2C(C)C)cn2ncnc2c1C	true
Cc1c(-c2[nH]c3sc(C4CCC(N5CC6(CCNC6=O)C5)CC4)c(C)c3c2C(C)C)cn2ncnc2c1C (stereo not drawn) [Example 299]	true
Cc1c(-c2[nH]c3sc([C@@H]4C[C@@H]5C[C@H]4CN5Cc4cccc(=O)[nH]4)c(C)c3c2C(C)C)cn2ncnc2c1C	true
Cc1c(-c2[nH]c3sc(C4CCC(N5CC6(C5)CS(=O)(=O)C6)CC4)c(C)c3c2C(C)C)cn2ncnc2c1C (stereo not drawn)	false
Cc1c(-c2[nH]c3sc([C@@H]4C[C@@H]5C[C@H]4CN5Cc4cn(C)nn4)c(C)c3c2C(C)C)cn2ncnc2c1C	true
Cc1c(-c2[nH]c3sc([C@@H]4C[C@@H]5C[C@H]4CN5Cc4ccc[nH]c4=O)c(C)c3c2C(C)C)cn2ncnc2c1C	true
Cc1c(-c2[nH]c3sc([C@@H]4C[C@@H]5C[C@H]4CN5C4COC4)c(C)c3c2C(C)C)cn2ncnc2c1C	true
Cc1c(-c2[nH]c3sc([C@@H]4C[C@@H]5C[C@H]4CN5Cc4cccn(C(F)F)c4=O)c(C)c3c2C(C)C)cn2ncnc2c1C	true
Cc1c(-c2[nH]c3sc(C4CC(n5cc(C6COCCN6)nn5)C4)c(C)c3c2C(C)C)cn2ncnc2c1C (single isomer, unassigned) [Example 244]	false
Cc1c(C2C[C@@H]3C[C@H]2CN3CC(N)=O)sc2[nH]c(-c3cc(C)c4ncnn4c3)c(C(C)C)c12 (stereo partly drawn)	true
Cc1c(-c2[nH]c3sc(C4CCC5(CC4)CNCCO5)c(C)c3c2C(C)C)cn2ncnc2c1C (single isomer, unassigned) [Example 293]	false
Cc1c(-c2[nH]c3sc([C@@H]4C[C@@H]5C[C@H]4CN5CC(=O)NC45CC(O)(C4)C5)c(C)c3c2C(C)C)cn2ncnc2c1C	true
Cc1c(C23CN(CC(N)=O)CC2C3(F)F)sc2[nH]c(-c3cc(C)c4ncnn4c3)c(C(C)C)c12 (stereo not drawn)	false
Cc1c(-c2[nH]c3sc(C4CCN(C(=O)[C@@H]5CCCN5)CC4)c(C)c3c2C(C)C)cn2ncnc2c1C	false
Cc1c(C2CCN(C(C)C(N)=O)CC2)sc2[nH]c(-c3cc(C)c4ncnn4c3)c(C(C)C)c12 (stereo not drawn)	false
Cc1c(-c2[nH]c3sc(C4COC5(CCN(CC(N)=O)CC5)C4)c(C)c3c2C(C)C)cn2ncnc2c1C (single isomer, unassigned) [Example 88]	false
